These entries and their values trace back to patent US20080299108A1.

# TARGET_OR_SYSTEM: HLA-DQ2 (Homo sapiens, UniProt P01909+P01920, A45G/A70V/D89A/E106A/E77G/E98D/H199R/L107V/N214S/P84L/P87L/T103K/T109R/T172A/T60S/V78E/V99I/Y58L/Y62S/Y69I/Y79F)
# Construct: the soluble extracellular domains of the DQ2 α and β chains were co-expressed; Fos leucine zipper, joined through a factor Xa site (C); gliadin peptide […]; Jun leucine zipper, joined through a factor Xa site (C); made in house; host or cells: High Five insect cells, pAcAB3 baculovirus
# PROCEDURE_DETAILS: Peptide exchange assay (HPSEC, fluorescein-conjugated peptides)
# Assay type: binding
# CONDITION_CONTEXT: pH 5 and pH 7
QUANTITY: DQ2 binding affinity

# DQ2 binding affinity of LQLQPFPQPEKPYPQPELPY [Peptide 17, L11K analogue of 20-mer peptide 5] = bound poorly to DQ2

# DQ2 binding affinity of LQLQPFPQPELPYPQPEKPY [Peptide 18, L18K analogue of 20-mer peptide 5] = bound poorly to DQ2
